Protocol Details: compound fluorescence in toxin protease inhibitor counterscreen, primary screen, artefact control for toxin protease inhibitor project, biochemical, multiplex microsphere, HTS (AID 624483)
Reported Conditions: compound autofluorescence counterscreen, microsphere flow cytometry; active compounds read high
The whole screen tested about 360,000 compounds, of which about 11,000 (3.1%) were called active. Another 2% or so got no clear call; they are omitted. This is one part of a sample in which actives are shown more often than they occur.

>  <Compound>
O=C(NCc1ccccc1)C1c2ccccc2OCC(=O)N1C1CC1 (stereo not given)

>  <fluorescence intensity>
5460 (inactive)

$$$$
>  <Compound>
COc1cc(C2NC(=O)NC(c3ccccc3)=C2C(C)=O)c(Br)cc1OCC(N)=O (stereo not given)

>  <fluorescence intensity>
3130 (inactive)

$$$$
>  <Compound>
CCC(=O)Nc1nnc(S(=O)(=O)N(CC(C)C)c2ccccc2)s1

>  <fluorescence intensity>
3230 (inactive)

$$$$
>  <Compound>
CCCOc1ccc(C2NC(=O)NC(c3ccccc3)=C2C(C)=O)cc1OCC (stereo not given)

>  <fluorescence intensity>
16800 (active)

$$$$
>  <Compound>
CCOc1ccc(-c2nc(C)sc2CC(=O)O)cc1

>  <fluorescence intensity>
22400 (active)

$$$$
>  <Compound>
COc1ccc(C(=O)OCC(=O)NC(=O)CCSc2ccccc2)cc1

>  <fluorescence intensity>
2520 (inactive)

$$$$
>  <Compound>
CC(=O)Nc1ccc(CNc2nc(NCCN(C)C)nc3cc(-c4ccccc4)sc23)cc1

>  <fluorescence intensity>
3970 (inactive)

$$$$
>  <Compound>
CCOC(=O)C1=C(c2ccccc2)NC(=O)NC1c1cc(OCC)c(O)c([N+](=O)[O-])c1 (stereo not given)

>  <fluorescence intensity>
3560 (inactive)

$$$$
>  <Compound>
COc1ccc(CC(N)c2csc(NC(=O)Cc3ccccc3)n2)cc1 (stereo not given)

>  <fluorescence intensity>
3080 (inactive)

$$$$
>  <Compound>
Cc1ccc(N(Cc2cc(=O)[nH]c3ccccc23)C(=O)CCl)cc1

>  <fluorescence intensity>
3750 (inactive)

$$$$

====

Protocol Details: compound fluorescence in toxin protease inhibitor counterscreen, primary screen, artefact control for toxin protease inhibitor project, biochemical, multiplex microsphere, HTS (AID 624483)
Reported Conditions: compound autofluorescence counterscreen, microsphere flow cytometry; active compounds read high
Out of some 360,000 compounds screened, about 11,000 (3.1%) were called active. Roughly 2% stayed inconclusive and do not appear here. Shown is part of a subset that was picked to be rich in actives.
Threshold rule: fluorescence intensity greater than or equal to 4000 is 1; below that, 0.

>  <Compound>
COc1ccc(-c2cnc3c(c2)C(=O)N([C@H](C)CO)C[C@@H](C)[C@H](CN(C)Cc2ccccc2)O3)cc1

>  <Label Class>
0

$$$$
>  <Compound>
Cc1cc(C)c(S(=O)(=O)NCC2CCC(C(=O)NCc3ccc4c(c3)OCO4)CC2)c(C)c1 (stereo not given)

>  <Label Class>
1

$$$$
>  <Compound>
Cc1cc(C)n2nc(C(=O)N3CCN(Cc4ccc5c(c4)OCO5)CC3)nc2n1

>  <Label Class>
1

$$$$
>  <Compound>
O=C(Nc1ccc2c(c1)nc1n2CCCCC1)c1cc(S(=O)(=O)N2CCOCC2)ccc1Cl

>  <Label Class>
0

$$$$

====

Protocol Details: compound fluorescence in toxin protease inhibitor counterscreen, primary screen, artefact control for toxin protease inhibitor project, biochemical, multiplex microsphere, HTS (AID 624483)
Reported Conditions: compound autofluorescence counterscreen, microsphere flow cytometry; active compounds read high
The whole screen tested about 360,000 compounds, of which about 11,000 (3.1%) were called active. Not shown: some 2% with an inconclusive outcome. This is one part of a sample in which actives are shown more often than they occur.
fluorescence intensity: recorded values

>  <Compound>
COc1cc(F)ccc1-c1cc(C(=O)NCC2CCCCC2)[nH]n1

>  <fluorescence intensity>
3000

$$$$
>  <Compound>
C=CCSc1nnc(Cn2c(=O)sc3ccccc32)n1C

>  <fluorescence intensity>
5480

$$$$
>  <Compound>
Cc1ccn2c(=O)nc(SCC(=O)NCc3ccc4c(c3)OCO4)nc2c1

>  <fluorescence intensity>
5730

$$$$
>  <Compound>
COC(=O)c1sccc1NC(=O)c1ccc(Cl)cc1

>  <fluorescence intensity>
2980

$$$$
>  <Compound>
COc1ccc(C)cc1NC(=O)NCc1ccccn1

>  <fluorescence intensity>
2130

$$$$
>  <Compound>
COC(=O)[C@]12CCCCC=C1N(Cc1ccco1)C(=O)[C@H](CC(=O)NCC1CCCCC1)C2

>  <fluorescence intensity>
4680

$$$$
>  <Compound>
CC(=O)NC(=S)NNC(=O)c1ccc(Br)cc1

>  <fluorescence intensity>
4310

$$$$
>  <Compound>
CC1(C(=O)NS(=O)(=O)c2ccccc2Cl)CCN1C(=O)c1cccc(F)c1 (stereo unspecified)

>  <fluorescence intensity>
2940

$$$$
>  <Compound>
Cc1ccn2c(=O)nc(SCC(=O)NCc3ccc(F)cc3)nc2c1

>  <fluorescence intensity>
16300

$$$$
>  <Compound>
O=S(=O)(NCCc1ccccc1)c1ccccc1

>  <fluorescence intensity>
3470

$$$$
>  <Compound>
Cc1cccc2cc(CN(C(=O)c3cccs3)c3ccccc3)c(=O)[nH]c12

>  <fluorescence intensity>
2690

$$$$
